Data origin, for the record: patent US11524938B2

Target: human P2X4 (Homo sapiens, UniProt Q99571)
Sequence (Q99571 1-388): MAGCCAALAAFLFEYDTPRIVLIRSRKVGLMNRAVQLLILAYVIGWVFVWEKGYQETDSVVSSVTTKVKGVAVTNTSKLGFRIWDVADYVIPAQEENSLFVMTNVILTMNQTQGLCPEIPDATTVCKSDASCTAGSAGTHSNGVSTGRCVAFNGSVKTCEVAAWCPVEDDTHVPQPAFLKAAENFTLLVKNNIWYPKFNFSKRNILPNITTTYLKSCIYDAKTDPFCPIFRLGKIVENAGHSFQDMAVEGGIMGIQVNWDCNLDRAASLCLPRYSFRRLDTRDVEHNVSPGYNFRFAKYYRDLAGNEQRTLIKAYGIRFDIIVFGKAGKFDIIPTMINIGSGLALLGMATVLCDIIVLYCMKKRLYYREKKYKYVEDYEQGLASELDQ
Assay: Human P2X4 HEK Cell FLIPR Assay
Format: cell-based
Details: HEK293, HEK293 cells, agonist Bz-ATP at EC80; percentage of maximal inhibition; read-out: Human P2X4 HEK Cells (FLIPR Assay) avg Efficacy [%]
READOUT: Emax (%)

>  <SMILES INPUT>
NS(=O)(=O)c1cc(NC(=O)Cc2ccccc2Cl)ccc1-c1cnc(C(F)(F)F)s1

>  <Emax [%]>
86

$$$$
>  <SMILES INPUT>
NS(=O)(=O)c1cc(NC(=O)Cc2ccccc2Cl)ccc1-n1cnc(-c2cccnc2)n1

>  <Emax [%]>
64

$$$$
>  <SMILES INPUT>
NS(=O)(=O)c1cc(NC(=O)Cc2ccccc2Cl)ccc1-c1cnc(C(F)(F)F)nc1

>  <Emax [%]>
80

$$$$
>  <SMILES INPUT>
NS(=O)(=O)c1cc(NC(=O)Cc2ccccc2Cl)ccc1-c1cnc(OC2CCC2)nc1

>  <Emax [%]>
86

$$$$

(A) CCOc1ccccc1CC(=O)Nc1ccc(-n2cc(Cl)cn2)c(S(N)(=O)=O)c1
(B) NS(=O)(=O)c1cc(NC(=O)Cc2cccc(C(F)(F)F)c2Cl)c(C(F)(F)F)cc1-n1cc(C(F)(F)F)cn1
Req: Determine, for A and B , which has the greater value of Emax. Indicate which entry you chose by stating its label.
Resp: A
(A: 88%, B: 26%)
